- System: HPPD polypeptides
- Method Description: coupled HPPD activity assay: turnover and residual turnover in crude extracts
- Assay type: biochemical, Pseudomonas fluorescens
- Stated Conditions: absence of Cmpd. 1; high substrate concentration; kinetic changes in absorbance (OD) at 320 nm, 30 min
Assay Metric: Turnover

Turnover lookup needed for 51 (protein, mutant HPPD polypeptide) MADLYENPMGLMGFEFIEFASPTPGTLEPIFEIMGFTKVATHRSKNVHLYRQGEINLILNNEPNSIASYFAAEHGPSVCGMAFRVKDSQKAYNRALELGAQPIHIDTGPMELNLPAIKGIGGAPLYLIDRFGEGSSIYDIDFVYLEGVERNPVGAGLKVIDHLTHNVYRGRMVYWANFYEKLFNFREARYFDIKGEYTGLTSKAMSAPDGMIRIPLNEESSKGAGQIEEFLMQFNGEGIQHVAFLTDDLVKTWDALKKIGMRFMTAPADNYYEMLEGRLPDHGEPVDQLQARGILLDGSSVEGDKRLLLQIFSETLMGPVFFEFIQRKGDDGFGPDSFKVLFESKERDQVRRGVLTAD , thanks.
0.131

Where do these numbers come from? They come from patent US11180770B2.
